Experimental System: NAD-dependent protein deacetylase sirtuin-1 (Homo sapiens)
Protocol Details: Activation of SIRT1 relative to control
So I've got a bunch of compounds here, and I need their Emax values.
The figure you give is taken to be in %; do not add the unit.

Task: // Emax lookup, key: COc1ccc(C(=O)Nc2ccccc2-c2nc3ncccc3o2)cc1OC
Result: 170

Task: // Emax lookup, key: O=C(Nc1ccc(CN2CCNCC2)cc1-c1nc2ccccc2[nH]1)c1cnc2ccccc2n1
Result: 820

Task: // Emax lookup, key: O=C(Nc1ccccc1-c1nc2ccccc2[nH]1)c1cnc2ccccc2n1
Result: 253

Task: // Emax lookup, key: CN(C)c1cccc(C(=O)Nc2ccccc2-c2nc3ncccc3o2)c1
Result: 209

Task: // Emax lookup, key: CN(C)c1cccc(C(=O)Nc2cccc(-c3nc4ncccc4o3)c2)c1
Result: 207

Task: // Emax lookup, key: COc1ccc(C(=O)Nc2cccc(-c3nc4ncccc4o3)c2)cc1OC
Result: 240
